test: self-splicing fitness, log relative to wild type (ln ratio); higher = more splicing; Tetrahymena group I intron in knt gene, E. coli kanamycin selection, DiMSum; sequences stand for … in CUCUCU…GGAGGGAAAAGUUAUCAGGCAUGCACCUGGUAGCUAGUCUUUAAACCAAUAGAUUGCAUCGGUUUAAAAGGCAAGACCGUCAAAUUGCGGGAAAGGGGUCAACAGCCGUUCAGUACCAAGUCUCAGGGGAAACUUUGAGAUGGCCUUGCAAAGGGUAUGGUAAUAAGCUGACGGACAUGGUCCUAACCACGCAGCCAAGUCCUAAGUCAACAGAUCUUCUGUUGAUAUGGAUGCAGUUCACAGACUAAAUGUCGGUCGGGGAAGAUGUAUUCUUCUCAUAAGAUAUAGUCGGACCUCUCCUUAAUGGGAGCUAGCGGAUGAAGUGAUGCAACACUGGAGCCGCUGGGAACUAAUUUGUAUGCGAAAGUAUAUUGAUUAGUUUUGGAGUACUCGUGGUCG; conditions: 30 °C;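 note: selection with 25 µg/mL kanamycin versus none on LB agar overnight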
Use self-splicing fitness (ln) to assign classes; range list: 0 = under -3, 1 = from -3 up to -2, 2 = -2 and over

Data request: Exercise: read the entry GCACAGCAAUAUUACGCUCA and state which class it falls under.
Data returned: 2

Data request: Form: Item = CUACAGCAAUAUUACGUAGC ; Class = ?
Data returned: 0

Data request: Could you tell me which band GCUAAGCAAUAUUACGAUCA belongs to?
Data returned: 2

Data request: Looking at GGGCAGCAAUAUUACGGAGG , which class would you pick?
Data returned: 0

Data request: Class for CUUGAGCAAUAUUACGAAUC ?
Data returned: 0

Data request: Sort into band: AUCAAGCAAUAUUACGAGGA
Data returned: 1

Data request: Exercise: read the entry AAUUAGCAAUAUUACGCGAC and state which class it falls under.
Data returned: 1

Data request: Please classify: GCAGAGCAAUAUUACGCUAG
Data returned: 2

Data request: Which bin should I file CCAAAGCAAUAUUACGGGCG under?
Data returned: 2

Data request: State the class of the sequence shown: GAAAAGCAAUAUUACGAUGC
Data returned: 2

Data request: Form: Item = AGCCAGCAAUAUUACGUUGC ; Class = ?
Data returned: 1

Data request: Form field 'band' for AUUUAGCAAUAUUACGUAAC
Data returned: 1

Data request: Band of GGCUAGCAAUAUUACGACAG ?
Data returned: 1

Data request: Where would GCGUAGCAAUAUUACGGUGC land among the classes by reported self-splicing fitness (ln)?
Data returned: 0

Data request: Input UCGAAGCAAUAUUACGCGAC ; output its category
Data returned: 0

Data request: Form field 'band' for AUACAGCAAUAUUACGUCCA
Data returned: 2

Data request: Each sequence maps to one class by self-splicing fitness (ln). Which class for UUUAAGCAAUAUUACGCAUC ?
Data returned: 1

Data request: Class? Entry: CGUGAGCAAUAUUACGAUGG
Data returned: 2

Data request: Returns: class label. Input: AGCUAGCAAUAUUACGCCCC
Data returned: 2

Data request: Please let me know in which category the item UCAUAGCAAUAUUACGUUGA belongs.
Data returned: 0

Data request: Lab note: sort UGUCAGCAAUAUUACGGCCG into the matching self-splicing fitness (ln) band.
Data returned: 2

Data request: Form field 'band' for UUGCAGCAAUAUUACGCAUG
Data returned: 1

Data request: Class label required: UUCUAGCAAUAUUACGGGUA
Data returned: 2

Data request: Sort GUUGAGCAAUAUUACGGGGC into one of the categories.
Data returned: 1

Data request: Quick check: band for UCAAAGCAAUAUUACGAUCU
Data returned: 1

Data request: The entry to classify is AAUAAGCAAUAUUACGAACG ; which class holds it?
Data returned: 2

Data request: Entry UUCGAGCAAUAUUACGGGCG belongs to which category?
Data returned: 1

Data request: Which band does GGGCAGCAAUAUUACGUACG fall in?
Data returned: 2

---

Assign self-splicing fitness (ln) to each entry below.
experiment: self-splicing fitness, log relative to wild type (ln ratio); higher = more splicing; Tetrahymena group I intron in knt gene, E. coli kanamycin selection, DiMSum; sequences stand for … in CUCUCU…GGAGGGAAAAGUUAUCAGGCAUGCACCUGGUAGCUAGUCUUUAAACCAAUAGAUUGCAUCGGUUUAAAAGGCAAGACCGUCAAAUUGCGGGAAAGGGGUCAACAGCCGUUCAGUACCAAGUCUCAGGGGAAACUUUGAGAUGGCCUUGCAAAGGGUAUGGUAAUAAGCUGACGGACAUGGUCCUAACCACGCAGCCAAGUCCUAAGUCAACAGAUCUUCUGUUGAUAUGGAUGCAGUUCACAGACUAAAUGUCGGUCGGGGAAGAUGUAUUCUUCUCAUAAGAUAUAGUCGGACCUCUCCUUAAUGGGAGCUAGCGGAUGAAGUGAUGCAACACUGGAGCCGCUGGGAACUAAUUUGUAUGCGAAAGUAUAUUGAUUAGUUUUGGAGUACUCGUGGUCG; conditions: 30 °C
API doc: respond with a numeric literal and nothing else, no unit.

Data request: Any idea what self-splicing fitness (ln) was measured for ACCAAGCAAUAUUACGGGUA ?
Data returned: -1.98

Data request: Value lookup for self-splicing fitness (ln); key = UCCUAGCAAUAUUACGCGUU
Data returned: -2.01

Data request: GET /values?readout=self-splicing fitness (ln)&item= CGCAAGCAAUAUUACGAGUG
Data returned: -1.99

---

experiment: self-splicing fitness, log relative to wild type (ln ratio); higher = more splicing; Tetrahymena group I intron in knt gene, E. coli kanamycin selection, DiMSum; sequences stand for … in CUCUCU…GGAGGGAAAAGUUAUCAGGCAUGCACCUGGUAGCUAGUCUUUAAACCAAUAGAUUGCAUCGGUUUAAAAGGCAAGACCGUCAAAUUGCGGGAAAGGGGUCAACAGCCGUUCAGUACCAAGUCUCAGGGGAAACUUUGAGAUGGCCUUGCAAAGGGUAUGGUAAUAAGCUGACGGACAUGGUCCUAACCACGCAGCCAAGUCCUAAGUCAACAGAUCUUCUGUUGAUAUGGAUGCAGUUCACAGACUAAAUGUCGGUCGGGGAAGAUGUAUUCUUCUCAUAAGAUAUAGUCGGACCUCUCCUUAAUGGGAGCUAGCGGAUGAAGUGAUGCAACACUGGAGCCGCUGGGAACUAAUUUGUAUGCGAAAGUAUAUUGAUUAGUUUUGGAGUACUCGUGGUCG; details: 30 °C
// no (0) strictly below -2 in self-splicing fitness (ln); yes (1) otherwise

Data request: Can UUGUAGCAAUAUUACGAAGA be said to have self-splicing fitness (ln) at or above -2?
Data returned: no (0)

Data request: Reported self-splicing fitness (ln) at or above -2? UGCGAGCAAUAUUACGUGUC
Data returned: no (0)

Data request: Kindly determine if self-splicing fitness (ln) recorded for GGUCAGCAAUAUUACGGCUU is above or exactly -2.
Data returned: yes (1)

Data request: Test whether the sequence CCGUAGCAAUAUUACGUUAU records self-splicing fitness (ln) of -2 or higher.
Data returned: no (0)

Data request: Reported self-splicing fitness (ln) reaches at least -2 for CCAAAGCAAUAUUACGCAAG ?
Data returned: yes (1)

Data request: Given the entry GUUGAGCAAUAUUACGUUCC , answer whether its self-splicing fitness (ln) meets or surpasses -2.
Data returned: yes (1)

Data request: Is self-splicing fitness (ln) at least -2? Consider AAGGAGCAAUAUUACGAUGU
Data returned: no (0)

Data request: Is reported self-splicing fitness (ln) greater than or equal to -2 here: UGCUAGCAAUAUUACGAAGG
Data returned: no (0)

---

assay: self-splicing fitness, log relative to wild type (ln ratio); higher = more splicing; Tetrahymena group I intron in knt gene, E. coli kanamycin selection, DiMSum; sequences stand for … in CUCUCU…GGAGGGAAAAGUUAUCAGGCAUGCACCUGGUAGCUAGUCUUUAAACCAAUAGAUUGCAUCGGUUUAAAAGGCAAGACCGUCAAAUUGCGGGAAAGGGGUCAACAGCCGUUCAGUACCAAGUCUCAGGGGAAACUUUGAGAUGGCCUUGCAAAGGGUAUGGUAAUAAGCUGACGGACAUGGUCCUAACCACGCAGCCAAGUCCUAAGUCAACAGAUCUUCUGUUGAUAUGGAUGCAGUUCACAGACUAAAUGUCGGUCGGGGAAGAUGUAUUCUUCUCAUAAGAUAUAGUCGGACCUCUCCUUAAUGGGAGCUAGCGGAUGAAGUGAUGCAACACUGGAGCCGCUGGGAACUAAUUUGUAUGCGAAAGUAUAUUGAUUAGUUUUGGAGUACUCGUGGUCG; details: 37 °C
Could you please report measured self-splicing fitness (ln) for the items listed next?
API doc: respond with a numeric literal and nothing else, no unit.

Data request: Given GCGGAGCAAUAUUACGUGAU , state its recorded self-splicing fitness (ln).
Data returned: -1.42

Data request: Could you share which self-splicing fitness (ln) value was measured for AUACAGCAAUAUUACGCUCG ?
Data returned: -0.205

Data request: Quick one: self-splicing fitness (ln) of AGUCAGCAAUAUUACGGCUU ?
Data returned: -1.91

Data request: Look up self-splicing fitness (ln) for this sequence: CGGGAGCAAUAUUACGUACG
Data returned: -1.53

Data request: Reported self-splicing fitness (ln) for UCAGAGCAAUAUUACGUCGA : what is it?
Data returned: -0.44
